- Tested on: CAKI-1 renal
- ASSAY EXPLANATION: NCI-60 one-dose screen, 48 h
- CONDITION INFO: 10 µM unless noted
Compounds without any hit were thinned out: in the full panel of roughly 83,000, 20% have a hit. Calls of active or inactive are those of the source. Rule for the calls: active = growth percent below 10; inactive = the rest.
Your response should consist of one outcome taken from T for active, F for inactive

Known results for molecules:
CHEMICAL STRING: CCCCNc1nnc(-c2cc(-c3cc4ccccc4o3)nn2-c2ccccc2)o1
DISCRETE LABEL: F
--
CHEMICAL STRING: COc1cc(CNC(=O)CCSc2nc3ccccc3c(=O)n2Cc2cc(OC)c(OC)c(OC)c2)cc(OC)c1OC
DISCRETE LABEL: F
--
CHEMICAL STRING: Cc1cc2c(C(C)C)c(O)c(O)c(C=NCCCCC(=O)O)c2c(O)c1-c1c(C)cc2c(C(C)C)c(O)c(O)c(C=NCCCCC(=O)O)c2c1O
DISCRETE LABEL: F
--
CHEMICAL STRING: NC(=O)c1c(NC(=O)c2ccc3c(c2)OCO3)sc2c1CCC(=O)C2
DISCRETE LABEL: T
--
CHEMICAL STRING: COc1ccc(NC(=O)/N=c2\oc3c(OC)cccc3cc2-c2cc3ccccc3[nH]2)cc1
DISCRETE LABEL: F
--
CHEMICAL STRING: C=CCc1cc(Cl)cc2c(OC(C)=O)c(C(C)=O)c(-c3ccccc3)nc12
DISCRETE LABEL: F

## Input In this assay, the call recorded for O=C(Nc1cc(C(F)(F)F)cc(C(F)(F)F)c1)Nc1ccc(OCc2nnc(-c3ccc(Cl)cc3)o2)c(F)c1 was what?
## Output T

## Input In this assay, the call recorded for O=S(=O)(NCCNc1cc(-c2cn(-c3ccccc3)nc2-c2ccccc2)ccn1)c1ccc(F)cc1 was what?
## Output F

## Input In this assay, the call recorded for COc1ccc(NC(=O)c2cc3ccccc3nc2Nc2cc(OC)c(OC)c(OC)c2)cc1 was what?
## Output F

---

- Test system: HCT-116 colon
- ASSAY EXPLANATION: NCI-60 one-dose screen, 48 h (100 = growth as untreated, 0 = no growth, -100 = all killed)
- CONDITION INFO: 10 µM unless noted
- Method: Growth inhibition of the HCT-116 human tumor cell line is measured as a screen for anti-cancer activity. Cells are grown in 96 well plates and exposed to the test compound for 48 hours. Compounds are tested at a single concentration, which is 10^-5 M for most compounds. The reported endpoint is percent growth (GI% or GIPRCNT), where numbers from 0 - 100% represent growth inhibition, and numbers from -100% - 0 represent cell death. For example, a value of 40 represents 60% growth inhibition. […]
The panel holds about 83,000 compounds, 20% with a hit somewhere; the sample as a whole holds those more often. Activity calls are given as the source filed them. Rule for the calls: active = growth percent below 10; inactive = the rest.
MEASURED PROPERTY: growth

COMPOUND: N#CC1=C(N)OC2=C(C(=O)CCC2)C1c1ccco1 (stereo unspecified)
MEAS VALUE: 103% (inactive)

## Input # return growth for CC1=NN2C(=NC3=C(CCC/C3=C\c3ccc(Cl)cc3)C2c2ccc(Cl)cc2)S1 (stereo unspecified) , test system: HCT-116 colon
## Output -37.2% (active)

## Input # return growth for Oc1ccc(N=Cc2ccccc2)cc1 , test system: HCT-116 colon
## Output 60.8% (inactive)

## Input # return growth for O=S=Nc1ccc([N+](=O)[O-])cc1 , test system: HCT-116 colon
## Output 94% (inactive)

## Input # return growth for COc1ccc(/C=c2\sc3n(c2=O)C2C(NN=3)N(C)C(=O)N2C)cc1 (stereo unspecified) , test system: HCT-116 colon
## Output 22.5% (inactive)

## Input # return growth for COc1ccc(/C(=N/O)c2cc(F)c(F)c(OC)c2F)cc1O , test system: HCT-116 colon
## Output 15.6% (inactive)

// data source = PubChem BioAssay (NCI)
